Tested on: PAK6
Conditions: concentration: 1 μM, replicates: in singlicate; n = 1;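 also: KINOMEscan kinase panel screen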
reportedProperty: %Inh (%)
State the answer as a number, implicitly in %.

Example results:
Enquiry: So what's the measured %Inh for this one? Nc1ncnc2occ(-c3ccc4c(c3)CCN4C(=O)Cc3cc(F)ccc3F)c12
Return: 0

Enquiry: So what's the measured %Inh for this one? CC[C@@H]1CO[C@H](C(=O)Nc2ccccc2)CN1c1cc(-c2ccc3c(N)n[nH]c3c2)nc(NC)n1
Return: 3

Enquiry: So what's the measured %Inh for this one? CC(C)c1ccc(O)cc1Nc1ccnc2ccc(C(F)(F)F)cc12
Return: 0

Enquiry: So what's the measured %Inh for this one? FC(F)(F)c1ccccc1-c1cc(-c2c[nH]nc2-c2ccccn2)ccn1
Return: 3

Enquiry: So what's the measured %Inh for this one? COc1ccc(CSc2nnc(-c3ccc4ncsc4c3)o2)cc1C(F)(F)F
Return: 9

We next turn to a different compound, shown below.
Enquiry: So what's the measured %Inh for this one? c1ccc(-c2ccnc3[nH]ccc23)cc1
Return: 4

###

System: PDGFRB
Conditions: concentration: 1 μM, replicates: in singlicate; n = 1
Let's look at some compounds and their measured %Inh.
State the answer as a number, implicitly in %.

Example results:
Enquiry: So what's the measured %Inh for this one? Cc1ccc(NC(=O)Nc2ccccc2)cc1-c1ccc(C(=O)Nc2ccncc2)cc1
Return: 100

Enquiry: So what's the measured %Inh for this one? CNc1nc(-c2ccc3c(N)n[nH]c3c2)cc(N2C[C@@H](C(=O)NC3CCCCC3)OC[C@H]2C)n1
Return: 35

Enquiry: So what's the measured %Inh for this one? Nc1nccc(-c2c(-c3ccc(F)cc3)ncn2C2CCN(Cc3ccccc3)CC2)n1
Return: 20

Enquiry: So what's the measured %Inh for this one? O=C1NC(=O)C(c2ccc(Cl)cc2)=C1Nc1ccc(O)cc1
Return: 0

***
Enquiry: So what's the measured %Inh for this one? CSc1ccc(-c2nc3n(c2-c2ccncc2)CCC3)cc1
Return: 0

Enquiry: So what's the measured %Inh for this one? CC(=O)c1c(C)c2cnc(Nc3ccc(N4CCNCC4)cn3)nc2n(C2CCCC2)c1=O
Return: 0

Enquiry: So what's the measured %Inh for this one? Cc1cnc(N)c(/C=C/c2cncc(C(=O)NCCc3ccc(Cl)cc3Cl)c2)c1.Cl
Return: 98.8

###

Let's look at some compounds and their measured %Inh.
Tested on: YES
Construct: gene YES1
Conditions: concentration: 1 μM, replicates: in singlicate; n = 1
State the answer as a number, implicitly in %.

Example results:
Enquiry: Form field - read-out: %Inh; system: YES; submitted item: COc1ccc(Nc2nccc(NCCNC(=O)Nc3cc(C)ccc3C)n2)cc1
Return: 0

Enquiry: Form field - read-out: %Inh; system: YES; submitted item: O=C(Nc1n[nH]c2nc(-c3cccs3)c(Br)cc12)C1CC1
Return: 8

Enquiry: Form field - read-out: %Inh; system: YES; submitted item: COc1ccc(Nc2nccc(N3CCC(NC(=O)c4cc5ccccc5s4)C3)n2)cc1 (centres unmarked)
Return: 17

Enquiry: Form field - read-out: %Inh; system: YES; submitted item: Cn1cncc1-c1cc2c(Nc3ccc(OCc4ccccc4)cc3)ncnc2cn1
Return: 19

***
Enquiry: Form field - read-out: %Inh; system: YES; submitted item: COC(=O)C(NC(=O)NC1CCN(c2ccnc(Nc3ccc(F)cc3)n2)C1)c1ccccc1 (centres unmarked)
Return: 0
